Sourced from the Human Domainome abundance scans (Beltran et al. 2025)

B1: Nuclear receptor subfamily 4 group A member 2, residues 260 to 336; numbered along this chain, P43354 (parent)
chain: EGLCAVCGDNAACQHYGVRTCEGCKGFFKRTVQKNAKYVCLANKNCPVDKRRRNRCQYCRFQKCLAVGMVKEVVRTD

Variants of: B1
MEASUREMENT DESCRIPTION: abundance fitness (aPCA) (normalised: wild type 0, dead -1); higher = more abundant; growth selection in yeast, the domain comes from the species named
MEASUREMENT PARAMETERS: Homo sapiens
ASSAY METRIC: abundance fitness
// response body must contain only the number

// worked examples, abundance fitness included
EGLCAVCGDNAACQHYGVRTCEGCKGFFKRTVQKNAKYVCLANKNCPVDKRRRNRCQYCRFQKCLAVGGVKEVVRTD	-0.463
EGLCAVCGDNAACQHYGVRTCEGCKGFFKRTVQKNAKYVCLANKNCPVDKRFRNRCQYCRFQKCLAVGMVKEVVRTD	-0.08
EGLCAVCGDNAACQHGGVRTCEGCKGFFKRTVQKNAKYVCLANKNCPVDKRRRNRCQYCRFQKCLAVGMVKEVVRTD	-0.01

Now consider the entry below.
What measured abundance fitness goes with EGLCAVCGDNAACQHYGVRTCEGCKGFFKRTVQKNAKYVCLANKNCPVDKRRRNRCQYCRFQKCLAEGMVKEVVRTD ? -0.017
